Answer each item with its documented AC50.
Target: Thromboxane A2 receptor (Homo sapiens); also: assay procedure not described here
Sequence (P21731 whole entry): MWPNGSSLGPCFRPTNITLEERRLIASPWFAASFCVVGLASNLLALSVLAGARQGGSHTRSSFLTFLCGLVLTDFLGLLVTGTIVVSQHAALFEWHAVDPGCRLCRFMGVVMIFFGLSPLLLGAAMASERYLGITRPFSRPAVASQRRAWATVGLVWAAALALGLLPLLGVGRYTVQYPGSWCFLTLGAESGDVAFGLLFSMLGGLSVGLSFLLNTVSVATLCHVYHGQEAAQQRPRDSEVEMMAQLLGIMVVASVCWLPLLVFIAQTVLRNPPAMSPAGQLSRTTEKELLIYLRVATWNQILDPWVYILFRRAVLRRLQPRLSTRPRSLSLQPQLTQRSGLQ
Type: functional, cell-based

Guide cases for AC50, answers given:
compound	AC50
COC(=O)N[C@H](C(=O)N1CC2(CC2)C[C@H]1c1ncc(-c2ccc3c(c2)C(F)(F)c2cc(-c4ccc5nc([C@@H]6[C@H]7CC[C@H](C7)N6C(=O)[C@@H](NC(=O)OC)C(C)C)[nH]c5c4)ccc2-3)[nH]1)C(C)C	> 30 µM
O=C1Nc2ccccc2C1(c1ccc(O)cc1)c1ccc(O)cc1	> 30 µM

# map each compound to its AC50
1. Nc1ccn(C[C@@H](CO)OCP(=O)(O)O)c(=O)n1
2. CC1(C)S[C@@H]2[C@H](NC(=O)[C@H](NC(=O)c3cnc4cccnc4c3O)c3ccccc3)C(=O)N2[C@H]1C(=O)O
3. CNC1(c2ccccc2Cl)CCCCC1=O (configuration not stated)

["> 30 µM", "> 30 µM", "> 30 µM"]

# map each compound to its AC50
1. NC(=O)C1(N2CCCCC2)CCN(CCCC(=O)c2ccc(F)cc2)CC1
2. O=c1[nH]c2ccccc2n1CCN1CCN(c2cccc(C(F)(F)F)c2)CC1

1. > 30 µM
2. > 30 µM

---

This document collects AC50 values reported for Growth hormone secretagogue receptor type 1 (Homo sapiens, UniProt Q92847).

# map each compound to its AC50
1. CCOC(=O)O[C@]1(C(=O)COC(=O)CC)CC[C@H]2[C@@H]3CCC4=CC(=O)C=C[C@]4(C)[C@H]3[C@@H](O)C[C@@]21C [PREDNICARBATE]
2. CC(=O)OCC1=C(C(=O)O)N2C(=O)[C@@H](NC(=O)Cc3cccs3)[C@H]2SC1
3. O=C(O)c1nn(Cc2ccc(Cl)cc2Cl)c2ccccc12

1. > 10 µM
2. > 30 µM
3. > 30 µM

# map each compound to its AC50
1. Nc1cc(N2CCCCC2)nc(N)[n+]1[O-]
2. Nc1ccc(S(=O)(=O)Nc2ncccn2)cc1
3. CCOC(=O)[C@H](CCc1ccccc1)N[C@@H](C)C(=O)N1Cc2ccccc2C[C@H]1C(=O)O
4. CCCO[C@H]1[C@@H]([C@@H](COCc2ccc(Cl)cc2)OCc2ccc(Cl)cc2)OC(OCC)[C@@H]1O (stereo partly specified) [CLOBENOSIDE]
5. COc1nc(C)nc(Cl)c1N=C1NCCN1
6. CCCCOC(=O)c1ccc(N)cc1
7. C[C@H](Cn1cnc2c(N)ncnc21)OCP(=O)(O)O [TENOFOVIR ANHYDROUS]

> 30 µM
> 10 µM
> 30 µM
> 30 µM
> 30 µM
> 30 µM
> 30 µM

# map each compound to its AC50
1. COc1ccc(-n2nc(C(N)=O)c3c2C(=O)N(c2ccc(N4CCCCC4=O)cc2)CC3)cc1
2. OCCOCCN1CCN(C(c2ccccc2)c2ccc(Cl)cc2)CC1 (stereo unspecified) [HYDROXYZINE]
3. O=C(O)CCCC[C@@H]1SC[C@@H]2NC(=O)N[C@@H]21
4. COc1ccc(-c2cc(=S)ss2)cc1
5. Cc1ccc(S(=O)(=O)NC(=O)N[C@H]2[C@H]3CC[C@@](C)([C@H]2O)C3(C)C)cc1 [GLIBORNURIDE]
6. CS(=O)(=O)NC(=O)CCC/C=C\C[C@H]1C(=O)C[C@@H](O)[C@@H]1/C=C/[C@@H](O)COc1ccccc1
7. CC1NCCOC1c1ccccc1 (stereo unspecified)
8. CN(C)[C@@H]1C(O)=C(C(=O)NCN2CCCC2)C(=O)[C@@]2(O)C(O)=C3C(=O)c4c(O)cccc4[C@@](C)(O)[C@H]3C[C@@H]12

1: > 30 µM; 2: > 30 µM; 3: > 10 µM; 4: > 30 µM; 5: > 30 µM; 6: > 30 µM; 7: > 30 µM; 8: > 10 µM

# map each compound to its AC50
1. CC(C(=O)O)c1ccc(C(=O)c2ccccc2)s1 (stereo unspecified)
2. Cc1cnc(Nc2ccc(OCCN3CCCC3)cc2)nc1Nc1cccc(S(=O)(=O)NC(C)(C)C)c1
3. COc1ccc2c3c1O[C@H]1C(=O)CC[C@H]4[C@@H](C2)N(C)CC[C@]314 [HYDROCODONE]
4. CC1CC(OC(=O)C(O)c2ccccc2)CC(C)(C)C1 (stereo unspecified) [CYCLANDELATE]
5. CC(C)(N)Cc1ccccc1
6. C=CC1=C(C(=O)O)N2C(=O)[C@@H](NC(=O)/C(=N\O)c3csc(N)n3)[C@H]2SC1
7. CCN(CC)C(C)C(=O)c1ccccc1 (stereo unspecified)

> 10 µM
9.16 µM
> 30 µM
> 10 µM
> 30 µM
> 30 µM
> 30 µM

# map each compound to its AC50
1. CCOC(=O)Nc1ccc(NCc2ccc(F)cc2)nc1N
2. CCC1(C)CC(=O)NC1=O (stereo unspecified) [ETHOSUXIMIDE]
3. CCOc1ccccc1OCCN[C@H](C)Cc1ccc(OC)c(S(N)(=O)=O)c1
4. CC(C)CN(C[C@@H](O)[C@H](Cc1ccccc1)NC(=O)O[C@H]1CCOC1)S(=O)(=O)c1ccc(N)cc1
5. Nc1nc(Cl)nc2c1ncn2[C@@H]1O[C@H](CO)[C@@H](O)[C@@H]1F

> 30 µM
> 10 µM
> 30 µM
> 30 µM
> 30 µM

# map each compound to its AC50
1. Nc1c2c(nc3ccccc13)CCCC2O (stereo unspecified)
2. Cn1cnc2c(F)c(Nc3ccc(Br)cc3F)c(C(=O)NOCCO)cc21
3. C[C@H](Nc1ncnc2[nH]cnc12)c1cc2cccc(Cl)c2c(=O)n1-c1ccccc1

> 30 µM
> 30 µM
> 30 µM

# map each compound to its AC50
1. CC(=O)OCC1=C(C(=O)O)N2C(=O)[C@@H](NC(=O)CSc3ccncc3)[C@H]2SC1
2. Cc1cccc(Nc2ccncc2S(=O)(=O)NC(=O)NC(C)C)c1 [TORSEMIDE]
3. CCN(CCO)CCCC(C)Nc1ccnc2cc(Cl)ccc12 (stereo unspecified) [HYDROXYCHLOROQUINE]

["> 10 µM", "> 30 µM", "> 10 µM"]

---

Target: Beta-1 adrenergic receptor (Homo sapiens, UniProt P08588); also: assay procedure not described here
Sequence (P08588 whole entry): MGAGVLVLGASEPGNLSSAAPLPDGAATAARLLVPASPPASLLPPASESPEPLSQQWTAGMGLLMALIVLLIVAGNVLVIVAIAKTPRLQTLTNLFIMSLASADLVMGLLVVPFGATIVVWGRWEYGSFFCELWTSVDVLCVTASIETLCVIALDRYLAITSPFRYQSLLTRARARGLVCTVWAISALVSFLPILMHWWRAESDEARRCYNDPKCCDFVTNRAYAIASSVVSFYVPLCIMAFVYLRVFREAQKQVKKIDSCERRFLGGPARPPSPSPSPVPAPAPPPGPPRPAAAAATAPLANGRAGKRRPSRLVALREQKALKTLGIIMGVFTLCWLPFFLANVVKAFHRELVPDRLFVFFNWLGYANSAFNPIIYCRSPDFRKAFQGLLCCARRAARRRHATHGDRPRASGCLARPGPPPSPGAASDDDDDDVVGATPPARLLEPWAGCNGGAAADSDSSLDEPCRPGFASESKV
Type: functional
Answer each item with its documented AC50.

Guide cases for AC50, answers given:
compound	measurement_target	result
C[C@]12C=CC(=O)C=C1CC[C@@H]1[C@@H]2[C@@H](O)C[C@@]2(C)[C@H]1CC[C@]2(O)C(=O)CO	Beta-1 adrenergic receptor (Homo sapiens, UniProt P08588)	> 10 µM
CN(C)CCC=C1c2ccccc2CCc2ccccc21	Beta-1 adrenergic receptor (Homo sapiens, UniProt P08588)	22.7 µM
CC1=C(/C=C/C(C)=C/C=C/C(C)=C/C(=O)Oc2c(C)c(C)c3c(c2C)CCC(C)(CCCC(C)CCCC(C)CCCC(C)C)O3)C(C)(C)CCC1 (centres undefined)	Beta-1 adrenergic receptor (Homo sapiens, UniProt P08588)	> 30 µM

# map each compound to its AC50
1. COC(=O)c1ccc2c(c1)NC(=O)/C2=C(\Nc1ccc(N(C)C(=O)CN2CCN(C)CC2)cc1)c1ccccc1
2. CC(=O)OCC(=O)[C@@]1(O)CC[C@H]2[C@@H]3CCC4=CC(=O)CC[C@]4(C)[C@@]3(F)[C@@H](O)C[C@@]21C [FLUDROCORTISONE ACETATE]
3. COc1cc2c(cc1OC)C1CC(=O)C(CC(C)C)CN1CC2 (centres undefined)
4. C=C(c1ccccc1OCc1cccc(Cl)c1)n1ccnc1
5. Nc1ccc(S(=O)(=O)Nc2ncccn2)cc1
6. Cc1cccc(Nc2ccncc2S(=O)(=O)NC(=O)NC(C)C)c1 [TORSEMIDE]
7. CN1CCCN=C1/C=C/c1cccc(O)c1
8. CCC1(C)CC(=O)NC1=O (centres undefined) [ETHOSUXIMIDE]

1. > 30 µM
2. > 30 µM
3. > 30 µM
4. > 30 µM
5. > 10 µM
6. > 10 µM
7. > 30 µM
8. > 10 µM

# map each compound to its AC50
1. CNC1(C)C2CCC(C2)C1(C)C (centres undefined)
2. CC(=O)NC[C@H]1CN(c2ccc(N3CCOCC3)c(F)c2)C(=O)O1

1. > 10 µM
2. > 30 µM

# map each compound to its AC50
1. CC(=O)[C@@]1(O)CC[C@H]2[C@@H]3C[C@H](C)C4=CC(=O)C=C[C@]4(C)[C@@]3(F)[C@@H](O)C[C@@]21C
2. COC(=O)CCc1ccc(OCC(O)CNC(C)C)cc1 (centres undefined)

> 10 µM
0.856 µM

# map each compound to its AC50
1. CC(C)(CO)c1cc2cc(NC(=O)C3(c4ccc5c(c4)OC(F)(F)O5)CC3)c(F)cc2n1C[C@@H](O)CO
2. CCC1(c2ccccc2)C(=O)NCNC1=O
3. CO[C@@H]1[C@@H](OC(N)=O)[C@@H](O)[C@H](Oc2ccc3c(O)c(NC(=O)c4ccc(O)c(CC=C(C)C)c4)c(=O)oc3c2C)OC1(C)C
4. CCOc1ccccc1OCCN[C@H](C)Cc1ccc(OC)c(S(N)(=O)=O)c1
5. CN(Cc1ccc(C(C)(C)C)cc1)Cc1cccc2ccccc12
6. CN(C)CCCC1(c2ccc(F)cc2)OCc2cc(C#N)ccc21 (centres undefined)

1: > 30 µM; 2: > 10 µM; 3: > 30 µM; 4: 2.5 µM; 5: > 10 µM; 6: > 10 µM
